- System: Mycobacterium tuberculosis
- assay-overview: Antitubercular activity against Mycobacterium tuberculosis H37Rv assessed as growth inhibition at 20 uM after 6 days by […]
- Format: functional
- experimental-context: 144 h, read-out: GI
Below, each entry is listed with its recorded inhibition of growth at 20 µM.
A number alone suffices; assume %.

Here are 4 compounds together with their reported answers.
>>> print(df.to_string())
                                   compound  unit_info  measured_number
0  Nc1ccn(CC(=O)NC2CCN(c3c(F)cc4c(=O)c(C(=O)O)cn(C5CC5)c4c3Cl)C2)n1 (stereo unspecified)          %             98.5
1  O=C(Cn1ccnn1)NC1CCN(c2c(F)cc3c(=O)c(C(=O)O)cn(C4CC4)c3c2Cl)C1 (stereo unspecified)          %             98.5
2  Nc1nnc(SCC(=O)NC2CCN(c3c(F)cc4c(=O)c(C(=O)O)cn(C5CC5)c4c3Cl)C2)s1 (stereo unspecified)          %               99
3  O=C(CCn1ccnn1)NC1CCN(c2c(F)cc3c(=O)c(C(=O)O)cn(C4CC4)c3c2Cl)C1 (stereo unspecified)          %             96.9

Could you please provide reported inhibition of growth at 20 µM for Nc1n[nH]c(SCC(=O)NC2CCN(c3c(F)cc4c(=O)c(C(=O)O)cn(C5CC5)c4c3Cl)C2)n1 (stereo unspecified) ? Thanks!
98.2

Could you please provide reported inhibition of growth at 20 µM for Nc1nnc(SCCC(=O)NC2CCN(c3c(F)cc4c(=O)c(C(=O)O)cn(C5CC5)c4c3Cl)C2)s1 (stereo unspecified) ? Thanks!
95.8
